Numbers sourced from the supplement of paper PMC9170038.

Test system: K4 kissing-loop RNA reporter
protocol_text: apparent KD of K4 kissing-loop reporter; higher = weaker reporter binding
run_conditions: Eterna round: R107; input ligand: arginine 13.2 mM
assay_readout: apparent KD of K4 kissing-loop reporter (nM)
Answer in nM, number only, no unit symbol.

Here's what some known entries look like.
sequence: CCUAGUGAUGUUAGGUCGUGCUCCUAUGAUACCAGCGUAGUCACUCGCCCUUGGCAGCAUUCCUUAUAAGGCGGUCGGGCGCGGU [theeternabot_sameState_KL_Theo_A_34]
apparent KD of K4 kissing-loop reporter (nM): 104
--
sequence: GGUAGGGCAGCUGCGGAAACGCAGCAUAUCGAGGAUAUCGGGAAACCGAGAAGGCGAGUAGUGAUGUUACUGGUUUAGCCCUACC
apparent KD of K4 kissing-loop reporter (nM): 167
--
sequence: AUAGCACCUUAUGAUACCAGACGAGUGAUGUUCUGUGGUGUCGUCACAAGGCAAUCGACUGUCCCUUGGCAGCAUCAUUCUAUAU [theeternabot_exclusion_KL_Theo_B_31]
apparent KD of K4 kissing-loop reporter (nM): 531
--
sequence: GGUAGCAUGGCGGCCGCCACUGGAGAGUGAUGUUCUCCACUAGGUUACAACGCCGGACAGUCCACCAGGACCGGGCCAUGCUACC
apparent KD of K4 kissing-loop reporter (nM): 106

Now consider the entry below.
Param request: apparent KD of K4 kissing-loop reporter | system K4 kissing-loop RNA reporter | item UUGUUUGGUUGAGAGGUUGGGCGAGAUGAUACCAGUAGAGAAGAGUACCCUUGGCAGCAUAGGAGAGAUAUAGUGAUGUUGUAUG [SSTheophA.S];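 note: bound reporter read as fluorescence of individual clusters on recovered sequencing chips by microscopy, with normalized cluster intensities fitted with a binding model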
187
